# PROTOCOL NOTES: Metabolic stability in rat plasma assessed as half life
# Format: ADME, cell-free
RECORDED ENDPOINT: half-life (h)

Worked cases, half-life given:
Suppose we examine the compound N/N=C(\N)N1Nc2onc(-c3ccccc3)c2C1c1ccc(Cl)cc1 (centres undefined) ; what half-life value has been reported?
4.57

Requested field: half-life. Item: Cc1nc(N2Nc3onc(-c4ccccc4)c3C2c2ccc(Cl)cc2)sc1/N=N/c1ccc(Br)cc1 (centres undefined)
4.07

I = COc1ccc(/N=N/c2sc(N3Nc4onc(-c5ccccc5)c4C3c3ccc(Cl)cc3)nc2C)cc1 (centres undefined)
II = CC1=C(/N=N/c2ccccc2)N=C(N2Nc3onc(-c4ccccc4)c3C2c2ccc(Cl)cc2)NN1 (centres undefined)
Compare reported half-life values for I and II . Which is lower? Write the label of whichever entry you select.
II
